Where do these numbers come from? They come from patent US20090149458A1.

# target_under_test: UniProtKB P42336
# Sequence (P42336 whole entry): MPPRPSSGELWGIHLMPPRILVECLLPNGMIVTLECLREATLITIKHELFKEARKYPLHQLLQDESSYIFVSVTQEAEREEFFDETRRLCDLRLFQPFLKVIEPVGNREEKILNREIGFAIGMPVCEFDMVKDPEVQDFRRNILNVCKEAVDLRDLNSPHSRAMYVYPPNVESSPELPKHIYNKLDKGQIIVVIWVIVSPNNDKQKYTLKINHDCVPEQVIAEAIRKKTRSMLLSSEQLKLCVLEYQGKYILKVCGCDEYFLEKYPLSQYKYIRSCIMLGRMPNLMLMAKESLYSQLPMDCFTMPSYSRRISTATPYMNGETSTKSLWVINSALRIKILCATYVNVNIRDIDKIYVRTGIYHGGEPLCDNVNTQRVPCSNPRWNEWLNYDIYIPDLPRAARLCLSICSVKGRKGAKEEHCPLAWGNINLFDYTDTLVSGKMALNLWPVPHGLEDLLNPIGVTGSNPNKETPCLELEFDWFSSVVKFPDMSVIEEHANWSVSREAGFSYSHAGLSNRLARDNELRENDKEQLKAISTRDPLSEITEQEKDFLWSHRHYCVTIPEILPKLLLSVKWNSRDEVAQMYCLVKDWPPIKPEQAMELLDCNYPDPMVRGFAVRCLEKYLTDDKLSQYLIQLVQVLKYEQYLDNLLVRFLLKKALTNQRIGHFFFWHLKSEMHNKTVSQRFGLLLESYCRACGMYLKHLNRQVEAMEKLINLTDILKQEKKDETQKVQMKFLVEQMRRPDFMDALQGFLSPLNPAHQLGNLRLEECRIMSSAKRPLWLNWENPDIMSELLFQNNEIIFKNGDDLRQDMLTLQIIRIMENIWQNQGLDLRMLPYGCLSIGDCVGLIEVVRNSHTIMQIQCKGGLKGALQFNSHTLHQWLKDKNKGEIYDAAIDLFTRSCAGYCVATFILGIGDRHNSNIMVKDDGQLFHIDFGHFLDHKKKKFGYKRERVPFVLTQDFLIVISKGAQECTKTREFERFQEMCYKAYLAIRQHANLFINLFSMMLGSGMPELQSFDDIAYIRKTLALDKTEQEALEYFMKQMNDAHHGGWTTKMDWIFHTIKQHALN
# Sequence (P27986 whole entry partner): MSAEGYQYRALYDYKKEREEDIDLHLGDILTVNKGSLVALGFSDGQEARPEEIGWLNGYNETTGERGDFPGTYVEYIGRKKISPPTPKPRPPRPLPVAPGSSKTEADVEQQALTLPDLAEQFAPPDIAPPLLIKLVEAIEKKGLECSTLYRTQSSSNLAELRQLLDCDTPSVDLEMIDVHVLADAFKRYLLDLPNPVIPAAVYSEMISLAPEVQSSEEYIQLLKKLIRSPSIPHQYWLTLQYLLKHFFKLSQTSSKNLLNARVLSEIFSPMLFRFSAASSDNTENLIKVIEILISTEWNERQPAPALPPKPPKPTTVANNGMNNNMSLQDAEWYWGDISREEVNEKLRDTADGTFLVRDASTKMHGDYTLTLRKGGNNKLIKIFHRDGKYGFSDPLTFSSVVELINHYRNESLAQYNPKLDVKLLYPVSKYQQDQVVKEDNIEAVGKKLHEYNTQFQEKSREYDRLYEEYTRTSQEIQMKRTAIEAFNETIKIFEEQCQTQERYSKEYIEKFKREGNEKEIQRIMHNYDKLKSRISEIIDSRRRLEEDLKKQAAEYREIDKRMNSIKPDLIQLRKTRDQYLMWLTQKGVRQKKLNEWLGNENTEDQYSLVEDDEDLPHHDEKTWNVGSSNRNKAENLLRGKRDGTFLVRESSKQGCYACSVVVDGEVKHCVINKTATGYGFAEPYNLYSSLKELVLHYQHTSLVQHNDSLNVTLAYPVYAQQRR
# assay_method_text: PI3K fluorescence polarization assay (PI3 Kinase α);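 also: enzyme reaction with inhibitor or DMSO control, 30–60 min at room temperature, stopped by EDTA, then TAMRA detector with GST-GRP fluorescence polarization read after 90–110 min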
# Type: biochemical
# experimental_context: 20 uM PIP2, 25 uM ATP
Threshold check on IC50: strictly below 100 nM is TRUE; on or above 100 nM is FALSE.

[[record]]
structure_smiles_string = "Oc1cccc(-c2nc(N3CCOCC3)c3[nH]cc(C4CCN(Cc5ccc(F)cc5Cl)CC4)c3n2)c1"
class_name = "FALSE"

[[record]]
structure_smiles_string = "O=C1COCCN1c1nc(-c2cccc(O)c2)nc2cc[nH]c12"
class_name = "FALSE"

[[record]]
structure_smiles_string = "Oc1cccc(-c2nc(N3CCOCC3)c3[nH]cc(C4CCN(Cc5ncc[nH]5)CC4)c3n2)c1"
class_name = "FALSE"

[[record]]
structure_smiles_string = "Oc1cccc(-c2nc(N3CCOCC3)c3[nH]cc(CN4CCN(c5ncccn5)CC4)c3n2)c1"
class_name = "FALSE"

[[record]]
structure_smiles_string = "CCN(CC)Cc1c[nH]c2c(N3CCOCC3)nc(-c3cccc(CO)c3)nc12"
class_name = "TRUE"

[[record]]
structure_smiles_string = "CN(C)Cc1c[nH]c2c(N3CCOCC3)nc(-c3cccc(O)c3)nc12"
class_name = "TRUE"

[[record]]
structure_smiles_string = "O=C(NCc1ccco1)Nc1cccc(-c2nc(N3CCOCC3)c3[nH]ccc3n2)c1"
class_name = "FALSE"

[[record]]
structure_smiles_string = "OCc1cccc(-c2nc(N3CCOCC3)c3[nH]cc(CN4CCN(c5ncccn5)CC4)c3n2)c1"
class_name = "TRUE"

[[record]]
structure_smiles_string = "CC(C)(C)OC(=O)NCCN1CCC(c2c[nH]c3c(N4CCOCC4)nc(-c4cccc(O)c4)nc23)CC1"
class_name = "FALSE"

[[record]]
structure_smiles_string = "OCc1cccc(-c2nc(N3CCOCC3)c3[nH]cc(CN4CCNCC4)c3n2)c1"
class_name = "TRUE"

[[record]]
structure_smiles_string = "OCc1cccc(-c2nc(N3CCOCC3)c3[nH]cc(CNCc4cccnc4)c3n2)c1"
class_name = "TRUE"

[[record]]
structure_smiles_string = "CN1CCC(c2c[nH]c3c(N4CCOCC4)nc(-c4cccc(O)c4)nc23)CC1"
class_name = "FALSE"

[[record]]
structure_smiles_string = "CC(C)CN1CCC(c2c[nH]c3c(N4CCOCC4)nc(-c4cccc(O)c4)nc23)CC1"
class_name = "FALSE"

[[record]]
structure_smiles_string = "CN(C)CCNC(=O)Nc1cccc(-c2nc(N3CCOCC3)c3[nH]ccc3n2)c1"
class_name = "FALSE"

[[record]]
structure_smiles_string = "CCN(CC)Cc1c[nH]c2c(N3CCOCC3)nc(-c3cccc(O)c3)nc12"
class_name = "FALSE"


----------
pIC50: −log10 of the molar value.
Below are compounds with their pIC50 as measured on PI3 Kinase γ (Homo sapiens).
Sequence (P48736 whole entry): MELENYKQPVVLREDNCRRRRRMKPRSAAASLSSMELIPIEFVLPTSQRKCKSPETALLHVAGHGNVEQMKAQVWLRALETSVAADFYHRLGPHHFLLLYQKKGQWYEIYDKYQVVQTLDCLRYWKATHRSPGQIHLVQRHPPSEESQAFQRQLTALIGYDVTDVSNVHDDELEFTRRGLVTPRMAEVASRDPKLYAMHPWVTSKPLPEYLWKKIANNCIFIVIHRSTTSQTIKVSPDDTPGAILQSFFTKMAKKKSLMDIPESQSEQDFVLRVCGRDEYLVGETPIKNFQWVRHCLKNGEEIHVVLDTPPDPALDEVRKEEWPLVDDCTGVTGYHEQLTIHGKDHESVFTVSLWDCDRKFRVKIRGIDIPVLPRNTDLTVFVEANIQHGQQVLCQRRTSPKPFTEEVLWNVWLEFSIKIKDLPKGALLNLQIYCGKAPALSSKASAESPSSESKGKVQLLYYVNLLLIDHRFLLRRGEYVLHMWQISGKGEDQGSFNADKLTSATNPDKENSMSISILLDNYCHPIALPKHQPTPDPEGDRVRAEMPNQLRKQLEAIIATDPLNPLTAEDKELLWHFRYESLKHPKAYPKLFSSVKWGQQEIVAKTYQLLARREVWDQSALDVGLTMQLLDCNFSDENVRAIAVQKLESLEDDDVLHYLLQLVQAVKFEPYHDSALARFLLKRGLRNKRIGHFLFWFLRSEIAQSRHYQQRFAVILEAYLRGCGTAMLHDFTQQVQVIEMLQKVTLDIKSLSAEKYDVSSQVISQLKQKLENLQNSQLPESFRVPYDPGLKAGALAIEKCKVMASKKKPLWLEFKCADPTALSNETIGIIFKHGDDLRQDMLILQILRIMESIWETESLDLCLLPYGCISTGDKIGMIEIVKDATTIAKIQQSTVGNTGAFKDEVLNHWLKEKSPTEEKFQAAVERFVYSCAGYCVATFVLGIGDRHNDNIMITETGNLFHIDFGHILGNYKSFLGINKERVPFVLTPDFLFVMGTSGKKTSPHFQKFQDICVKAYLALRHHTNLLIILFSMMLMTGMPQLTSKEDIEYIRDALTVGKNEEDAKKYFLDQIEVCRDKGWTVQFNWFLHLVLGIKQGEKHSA
endpoint_label: pIC50

[[record]]
structure_smiles_string = "Oc1cccc(-c2nc(N3CCOCC3)c3[nH]cc(CN4CCN(c5ncccn5)CC4)c3n2)c1"
value_prefix = "="
observed_value = 5.17

[[record]]
structure_smiles_string = "C1=C(c2c[nH]c3c(N4CCOCC4)nc(-c4cccc(OCc5ccccc5)c4)nc23)CCNC1"
value_prefix = "<"
observed_value = 5.00

[[record]]
structure_smiles_string = "CN1CCC(c2c[nH]c3c(N4CCOCC4)nc(-c4cccc(O)c4)nc23)CC1"
value_prefix = "="
observed_value = 6.08

[[record]]
structure_smiles_string = "Oc1cccc(-c2nc(N3CCOCC3)c3[nH]cc(C4CCN(Cc5ccccc5)CC4)c3n2)c1"
value_prefix = "="
observed_value = 6.05

[[record]]
structure_smiles_string = "Oc1cccc(-c2nc(N3CCOCC3)c3[nH]cc(C4CCN(Cc5ccc[nH]5)CC4)c3n2)c1"
value_prefix = "="
observed_value = 6.10

[[record]]
structure_smiles_string = "O=C1COCCN1c1nc(-c2cccc(O)c2)nc2cc[nH]c12"
value_prefix = "="
observed_value = 5.70

[[record]]
structure_smiles_string = "Oc1cccc(-c2nc(N3CCOCC3)c3[nH]cc(CNCc4cccnc4)c3n2)c1"
value_prefix = "="
observed_value = 5.52

[[record]]
structure_smiles_string = "CN(C)Cc1c[nH]c2c(N3CCOCC3)nc(-c3cccc(O)c3)nc12"
value_prefix = "="
observed_value = 5.94

[[record]]
structure_smiles_string = "OCc1cccc(-c2nc(N3CCOCC3)c3[nH]cc(CNCc4cccnc4)c3n2)c1"
value_prefix = "="
observed_value = 5.54

[[record]]
structure_smiles_string = "CN1CCN(Cc2c[nH]c3c(N4CCOCC4)nc(-c4cccc(CO)c4)nc23)CC1"
value_prefix = "="
observed_value = 5.69

[[record]]
structure_smiles_string = "Oc1cccc(-c2nc(N3CCOCC3)c3[nH]cc(C4CCNCC4)c3n2)c1"
value_prefix = "="
observed_value = 5.97

[[record]]
structure_smiles_string = "Oc1cccc(-c2nc(N3CCOCC3)c3[nH]cc(C4CCN(Cc5ccc(F)nc5)CC4)c3n2)c1"
value_prefix = "="
observed_value = 6.88

[[record]]
structure_smiles_string = "CCN(CC)Cc1c[nH]c2c(N3CCOCC3)nc(-c3cccc(O)c3)nc12"
value_prefix = "="
observed_value = 5.74

[[record]]
structure_smiles_string = "OCc1cccc(-c2nc(N3CCOCC3)c3[nH]cc(C4=CCNCC4)c3n2)c1"
value_prefix = "="
observed_value = 5.92

[[record]]
structure_smiles_string = "CCN(CC)Cc1c[nH]c2c(N3CCOCC3)nc(-c3cccc(CO)c3)nc12"
value_prefix = "="
observed_value = 6.09

[[record]]
structure_smiles_string = "CNC(=O)Nc1ccc(-c2nc(N3CCOCC3)c3[nH]ccc3n2)cc1"
value_prefix = "="
observed_value = 5.30

[[record]]
structure_smiles_string = "O=C(NCCCn1ccnc1)Nc1cccc(-c2nc(N3CCOCC3)c3[nH]ccc3n2)c1"
value_prefix = "<"
observed_value = 5.00

[[record]]
structure_smiles_string = "OCc1cccc(-c2nc(N3CCOCC3)c3[nH]cc(CN4CCCC4)c3n2)c1"
value_prefix = "="
observed_value = 5.95

[[record]]
structure_smiles_string = "O=C(NCCCO)Nc1cccc(-c2nc(N3CCOCC3)c3[nH]ccc3n2)c1"
value_prefix = "<"
observed_value = 5.00

[[record]]
structure_smiles_string = "Oc1cccc(-c2nc(N3CCOCC3)c3[nH]cc(C4CCN(C5CCCCC5)CC4)c3n2)c1"
value_prefix = "="
observed_value = 5.60

[[record]]
structure_smiles_string = "CC(C)(C)OC(=O)NCCN1CCC(c2c[nH]c3c(N4CCOCC4)nc(-c4cccc(O)c4)nc23)CC1"
value_prefix = "="
observed_value = 5.76

[[record]]
structure_smiles_string = "Oc1cccc(-c2nc(N3CCOCC3)c3[nH]ccc3n2)c1"
value_prefix = "="
observed_value = 6.79

